- experimental-system: human GPR119 (hGPR119) (Homo sapiens)
- Sequence (Q8TDV5 1-335): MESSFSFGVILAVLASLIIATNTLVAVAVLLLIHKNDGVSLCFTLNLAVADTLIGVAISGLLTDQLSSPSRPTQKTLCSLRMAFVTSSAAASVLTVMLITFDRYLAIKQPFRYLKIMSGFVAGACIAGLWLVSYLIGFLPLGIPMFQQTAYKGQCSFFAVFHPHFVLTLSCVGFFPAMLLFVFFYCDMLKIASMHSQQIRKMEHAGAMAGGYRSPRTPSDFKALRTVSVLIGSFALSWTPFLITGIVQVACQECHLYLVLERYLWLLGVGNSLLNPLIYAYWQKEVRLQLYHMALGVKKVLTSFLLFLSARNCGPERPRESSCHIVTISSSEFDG
- assay-notes: cAMP accumulation assay (Cisbio cAMP Gs dynamic HTRF kit) in CHO-K1 cells stably expressing human GPR119
- run-parameters: 60 minutes at 37° C., 4-parameter fit
- Method: CHO-K1 cells stably expressing human GPR119 (hGPR119) were prepared by transfection of a GPR119-carrying plasmid using Lipofectamine 2000 (following manufacturer instructions). […] Assay-ready frozen (ARF) cells were prepared and used throughout the study. […] RT-FRET was measured using a ClarioSTAR plate reader, calculating the ratio between emissions at 665 nm and 620 nm (HTRF ratio). […] EC50 and Max activity values were determined using a standard 4-parameter fit.
pEC50: −log10 of the molar value.
The compounds listed here are annotated with their pEC50.

Example entries and their recorded answers appear below.
compound	pEC50
O=C(Cc1ccc(OCCCC2CCN(c3ncc(Cl)cn3)CC2)cc1F)N1CCC12CN(C[C@H](O)[C@@H](O)[C@H](O)[C@H](O)CO)C2 [Example 41]	< 5.00
O=C(Cc1c(F)cc(OCCCCC2CCN(c3ncc(Cl)cn3)CC2)cc1F)N1CCN(C[C@H](O)[C@@H](O)[C@H](O)[C@H](O)CO)CC1 [Example 87]	≥ 7.00

Now consider a different compound.
Tell me the measured pEC50 of O=C(Cc1ccc(OCCCC2CCN(c3ncc(Cl)cn3)CC2)cc1F)N1CC2(CCC2NC[C@H](O)[C@@H](O)[C@H](O)[C@H](O)CO)C1 (stereo in doubt) [Example 79] , please.
≥ 7.00

Attribution: patent US20240217983A1
